# Target System: T1, human GIPR (human), P48546
# T1 chain: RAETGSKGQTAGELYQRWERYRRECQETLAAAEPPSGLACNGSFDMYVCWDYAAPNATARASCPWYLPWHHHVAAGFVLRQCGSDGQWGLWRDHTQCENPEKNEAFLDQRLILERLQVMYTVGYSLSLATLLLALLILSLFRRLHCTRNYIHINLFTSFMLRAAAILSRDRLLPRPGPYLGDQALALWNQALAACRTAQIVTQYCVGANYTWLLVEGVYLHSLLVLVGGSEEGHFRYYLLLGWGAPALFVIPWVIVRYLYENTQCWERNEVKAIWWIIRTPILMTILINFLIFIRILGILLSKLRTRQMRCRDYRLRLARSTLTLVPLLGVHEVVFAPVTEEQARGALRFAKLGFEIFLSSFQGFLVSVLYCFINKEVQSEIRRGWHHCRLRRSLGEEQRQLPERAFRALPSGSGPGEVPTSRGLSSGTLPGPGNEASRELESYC
Non-standard residues stand in square brackets, D forms with d. Groups on a side chain read outwards from the residue. Primed or numbered codes have the meaning given here. No end group written: not given here. *: point of attachment. C20 diacid = O=C(O)CCCCCCCCCCCCCCCCCCC(=O)*; Stearoyl = CCCCCCCCCCCCCCCCCC(=O)*; dIva = CC[C@@](C)(N)C(=O)O; Iva = CC[C@](C)(N)C(=O)O; Aib = CC(C)(N)C(=O)O
Measured Metric: Agonist activity (EC50, M)
Numbers only, in M.

Illustrative cases are given below, each with its answer.
[
  {
    "Binder": "Y[Aib]EGTFISDYSK([PEG(4)-Pal])ALDRIAQQDFVNWLLAQRPSSGAPPPSR (ends and bridges not checked) [Compound 190]",
    "Measurement": "2.1e-11"
  },
  {
    "Binder": "Me-Y[Aib]EGTFISDYSI[dIva]LDRIAQQDFVNWLLAQRPSSGAPPPSR (not fully specified (residue 1, C-terminus); ends and bridges not checked) [Compound 131]",
    "Measurement": "1.9e-12"
  },
  {
    "Binder": "Y[Aib]EGTVVSLYSK([Gly-Gly-Gly-Gly-Stearoyl])[Aib]LDRQAQ[Aib]EFVRWLLAQR (ends and bridges not checked) [Compound 257]",
    "Measurement": "9e-11"
  }
]

Here is the next item to consider.
**Query** Query (binder): Y[Aib]EGTFISDYSIALDRK([PEG(2)-C20 diacid])AQQNFVNW[Iva]LAQRPSSGAPPPS (not fully specified (C-terminus); ends and bridges not checked) [Compound 404] ; field requested: Agonist activity (EC50, M)
**Result** 1.1e-10

Sourced from patent US20180298070A1
